Assignment: determine reported pIC50 for the given molecules.
- test-target: BIR2 domain of XIAP (Homo sapiens, UniProt P98170, C202A/C213G)
- Construct: 6× Histidine-tagged BIR2 domain, corresponding to amino acids 124-240 of XIAP
- Sequence (P98170 with tags, fused parts or gaps C202A/C213G): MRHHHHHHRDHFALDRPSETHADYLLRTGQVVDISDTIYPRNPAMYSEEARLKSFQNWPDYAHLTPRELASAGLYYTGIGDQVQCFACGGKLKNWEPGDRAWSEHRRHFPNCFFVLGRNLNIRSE
- experimental-protocol: TR-FRET assay for BIR2 (inhibition of binding of XIAP BIR2 domain to SMAC-derived Peptide A)
- details: 6x Histidine-tagged BIR2 domain (amino acids 124-240 of XIAP) 10 nM, Peptide A 20 nM
Note: pIC50 values are expressed as the negative base-10 logarithm of concentration in M.

Please fill in: pIC50 reported for CN[C@@H](C)C(=O)N[C@H](C(=O)N1c2ncccc2C[C@H]1C(=O)NCc1ccccc1)C(C)C = 6.80

Please fill in: pIC50 reported for CN[C@@H](C)C(=O)N[C@H](C(=O)N1c2ncccc2C[C@H]1C(=O)NCc1cc(Cl)ccc1C)C(C)C = 6.41

Please fill in: pIC50 reported for CN[C@@H](C)C(=O)N[C@H](C(=O)N1c2ncccc2C[C@H]1C(=O)Nc1c(C)cccc1F)C1CCOCC1 = 7.94

Please fill in: pIC50 reported for CN[C@@H](C)C(=O)N[C@H](C(=O)N1c2ncccc2C[C@H]1C(=O)Nc1c(C)cccc1F)C(C)C = 8.02

====

Assignment: determine reported IC50 for the given compounds.
- test-target: BIR2 domain of XIAP (Homo sapiens, UniProt P98170, C202A/C213G)
- Construct: 6× Histidine-tagged BIR2 domain, corresponding to amino acids 124-240 of XIAP
- experimental-protocol: TR-FRET assay for BIR2 (inhibition of binding of XIAP BIR2 domain to SMAC-derived Peptide A)
- details: 6x Histidine-tagged BIR2 domain (amino acids 124-240 of XIAP) 10 nM, Peptide A 20 nM
Field format: number, assumed nM, no unit text.

Please fill in: IC50 reported for C[C@H](NCCO)C(=O)N[C@H](C(=O)N1c2ncccc2C[C@H]1C(=O)Nc1ccccc1)C1CCCCC1 = 155

Please fill in: IC50 reported for CN[C@@H](C)C(=O)N[C@H](C(=O)N1c2ncccc2C[C@H]1C(=O)Nc1cncnc1)C(C)C = 1630

Please fill in: IC50 reported for [2H]C([2H])([2H])N[C@@H](CC)C(=O)N[C@H](C(=O)N1c2ncccc2C[C@H]1C(=O)Nc1ccccc1)C(C)C = 65.6

Please fill in: IC50 reported for CC(C)[C@H](NC(=O)[C@H](C)NCCO)C(=O)N1c2ncccc2C[C@H]1C(=O)Nc1ccccc1 = 266

Please fill in: IC50 reported for CN[C@@H](C)C(=O)N[C@H](C(=O)N1c2ncccc2C[C@H]1C(=O)NC(C)c1ccccc1)C(C)C (stereo partly drawn) = 978

Please fill in: IC50 reported for CC[C@H](NC)C(=O)N[C@H](C(=O)N1c2ncccc2C[C@H]1C(=O)Nc1c(F)cccc1F)C(C)C = 14.2

Please fill in: IC50 reported for CN[C@@H](C)C(=O)N[C@H](C(=O)N1c2ncccc2C[C@H]1C(=O)Nc1cccc2ccccc12)C(C)C = 54.5

Please fill in: IC50 reported for CN[C@@H](C)C(=O)N[C@H](C(=O)N1c2ncccc2C[C@H]1C(=O)Nc1ccccc1Cl)C(C)C = 25.4

Please fill in: IC50 reported for CN[C@@H](C)C(=O)N[C@H](C(=O)N1c2ncccc2C[C@H]1C(=O)Nc1ccccc1C)C(C)C = 33.5

Please fill in: IC50 reported for CN[C@@H](C)C(=O)N[C@H](C(=O)N1c2ncccc2C[C@H]1C(=O)Nc1cc(C)cc(C)c1)C(C)C = 304

Please fill in: IC50 reported for CCNC(=O)C1Cc2cccnc2N1C(=O)[C@@H](NC(=O)[C@H](CC)NC)C1CCCCC1 (stereo partly drawn) = 1860

Please fill in: IC50 reported for CN[C@@H](C)C(=O)N[C@H](C(=O)N1c2ncccc2CC1C(N)=O)C(C)C (stereo partly drawn) = 501

Please fill in: IC50 reported for CN[C@@H](C)C(=O)N[C@H](C(=O)N1c2ncccc2C(C)C1C(=O)Nc1c(F)cccc1F)C(C)C (stereo partly drawn) = 17

Please fill in: IC50 reported for CCN[C@@H](C)C(=O)N[C@H](C(=O)N1c2ncccc2C[C@H]1C(=O)Nc1c(F)cccc1F)C(C)C = 46.2

Please fill in: IC50 reported for CCNC(=O)C1Cc2cccnc2N1C(=O)[C@@H](NC(=O)[C@H](C)NC)C(C)C (mixture of isomers) = 1040
